- Assay target: 15-hydroxyprostaglandin dehydrogenase [NAD(+)] (Homo sapiens) (UniProt P15428)
- Sequence (P15428 whole entry, looked up): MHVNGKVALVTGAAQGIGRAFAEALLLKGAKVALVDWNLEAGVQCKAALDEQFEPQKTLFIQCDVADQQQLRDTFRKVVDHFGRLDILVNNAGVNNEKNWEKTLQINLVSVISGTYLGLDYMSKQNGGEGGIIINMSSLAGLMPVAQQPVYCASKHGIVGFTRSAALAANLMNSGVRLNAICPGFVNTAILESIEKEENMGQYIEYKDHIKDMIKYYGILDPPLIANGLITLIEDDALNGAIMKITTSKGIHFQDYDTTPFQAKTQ
- Assay method text: qHTS Assay for Inhibitors of HPGD (15-Hydroxyprostaglandin Dehydrogenase); also: potency is read from the fitted curve at half-maximal effect
- Condition: purified HPGD, NADH fluorescence kinetic, PGE2 substrate
Screen size: about 150,000 compounds; about 6,500 (4.3%) were called active. Roughly 12% stayed inconclusive and do not appear here. What follows is part of a selection rich in actives, with near analogues and random picks from the rest.
Outcome measure: Potency

As a guide, the following entries are already answered.
INSERT INTO assay_data (molecule, assay_target, outcome_measure, result) VALUES
  ('Cc1ccccc1-n1nc(C)c2cc(C(=O)NC3CC3)sc21', '15-hydroxyprostaglandin dehydrogenase [NAD(+)] (Homo sapiens) (UniProt P15428)', 'Potency', '22.4 µM (active)'),
  ('O=C(NCc1ccccc1Cl)C1CCC(CNc2c(N3CCCCC3)c(=O)c2=O)CC1 (stereo unspecified)', '15-hydroxyprostaglandin dehydrogenase [NAD(+)] (Homo sapiens) (UniProt P15428)', 'Potency', '12.6 µM (active)');

Respectfully, I request Potency for each entry included below.
1. S=c1[nH]nc(-c2ccco2)n1/N=C/c1ccc(Br)s1
2. Cc1ccc(-c2n[nH]c(=S)n2/N=C/c2cc3c(cc2[N+](=O)[O-])OCO3)cc1

A.
1. 2.82 µM (active)
2. 1.58 µM (active)

----------
- Assay target: 15-hydroxyprostaglandin dehydrogenase [NAD(+)] (Homo sapiens)
- Assay method text: qHTS Assay for Inhibitors of HPGD (15-Hydroxyprostaglandin Dehydrogenase); as to activity change, negative = inhibition: % is scaled to controls: 0 for no effect and ±100 for the full control effect
- Condition: purified HPGD, NADH fluorescence kinetic, PGE2 substrate; hits give low values
- Excerpt: Human 15-Hydroxyprostaglandin dehydrogenase (HPGD) catalyzes the inactivation of prostaglandin E2, and plays a major role in cancer biology by antagonizing the oncogenic potential of cyclooxygenase type 2 (COX2). Assays are available, based on absorbance/fluorescence increase of NADH with the substrate 15-OH prostaglandin E2. References 1. […] An increase in the fluorescence intensity due to conversion of NAD+ to NADH was used to measure the enzyme activity. […]
The whole screen tested about 150,000 compounds, of which about 6,500 (4.3%) were called active. Not shown: some 12% with an inconclusive outcome. For the sample, actives were picked, then their nearest neighbours and some compounds at random.
Can you tell me activity change, negative = inhibition for the items I'm about to list?
Numbers only, in %.

INSERT INTO assay_data (compound, assay_target, endpoint_unit, quantitative_readout) VALUES
  ('Cc1ccc(S(=O)(=O)C2C(=O)NC3(C)CC2c2ccccc2O3)cc1 (stereo not given)', '15-hydroxyprostaglandin dehydrogenase [NAD(+)] (Homo sapiens)', '%', -19.6),
  ('O=S(=O)(NCCc1ccncc1)c1ccccc1', '15-hydroxyprostaglandin dehydrogenase [NAD(+)] (Homo sapiens)', '%', -10.2),
  ('C/C(CCC(=O)OC[C@H]1O[C@H](C#Cc2ccccc2)C=C[C@@H]1Oc1ccc(C)cc1)=N\OC[C@@H](O)[C@H]1O[C@@H]2OC(C)(C)O[C@@H]2[C@H]1O', '15-hydroxyprostaglandin dehydrogenase [NAD(+)] (Homo sapiens)', '%', -19.5),
  ('COCCOC(=O)c1c(C)oc2cc(Br)c(OCC(N)=O)cc12', '15-hydroxyprostaglandin dehydrogenase [NAD(+)] (Homo sapiens)', '%', -7.04),
  ('CCN=C1S/C(=C\c2cc(Br)ccc2OCC(=O)OCC)C(=O)N1CC', '15-hydroxyprostaglandin dehydrogenase [NAD(+)] (Homo sapiens)', '%', 51.2),
  ('O=C(NCc1ccco1)c1ccc(Cn2c(=O)c3sccc3n(Cc3ccc(F)cc3)c2=O)cc1', '15-hydroxyprostaglandin dehydrogenase [NAD(+)] (Homo sapiens)', '%', -17.7);

Respectfully, I request activity change, negative = inhibition for each entry included below.
1. O=C1CC(c2cccc(Cl)c2)CC(O)=C1C=Nc1ccccc1 (stereo not given)
2. C[C@H]1Cc2c(-c3ccccc3)nc3c(c2CO1)CN(S(=O)(=O)c1ccc(Cl)c2nonc12)CC3
3. CN(C)CCSc1nc(N)c2c3c(sc2n1)COC(C)(C)C3

A.
[-9.88, -7.2, -15.6]

Q. State its activity change, negative = inhibition: `CCOC(=O)CSc1nc2c(c(=O)n(C)c(=O)n2C)n1Cc1ccccc1F`
A. -4.76
